testedTarget: recombinant human MAO-B (monoamine oxidase-B) (Homo sapiens)
Construct: purchased Sigma-Aldrich
Sequence (P27338 whole entry): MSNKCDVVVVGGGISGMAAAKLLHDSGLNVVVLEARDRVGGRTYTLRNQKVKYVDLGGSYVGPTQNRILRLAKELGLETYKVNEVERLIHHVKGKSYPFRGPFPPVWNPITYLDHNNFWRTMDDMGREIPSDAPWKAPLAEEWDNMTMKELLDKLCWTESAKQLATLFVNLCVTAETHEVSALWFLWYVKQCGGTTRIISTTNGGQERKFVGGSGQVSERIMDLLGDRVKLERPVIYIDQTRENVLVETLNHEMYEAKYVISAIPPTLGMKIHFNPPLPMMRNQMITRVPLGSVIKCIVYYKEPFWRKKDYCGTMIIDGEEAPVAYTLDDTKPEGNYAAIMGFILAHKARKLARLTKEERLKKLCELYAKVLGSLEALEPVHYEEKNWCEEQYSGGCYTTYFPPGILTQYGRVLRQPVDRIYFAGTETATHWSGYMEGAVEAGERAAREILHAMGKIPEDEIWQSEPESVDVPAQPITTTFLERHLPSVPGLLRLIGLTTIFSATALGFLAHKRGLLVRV
testDetails: Activity evaluation on recombinant human MAO-B (Amplex Red/HRP-coupled assay, 1 mM benzylamine substrate)
Format: biochemical
runParameters: 1 mM benzylamine, read-out: Inhibitory Activity (IC50, nM) MAO-B
Procedure: The compounds according to the present technology were evaluated in terms of activity on recombinant human VAP-1 (R&D systems) by measuring the level of hydrogen peroxide in horseradish peroxidase (HRP)-coupled reaction using Amplex Red Hydrogen Peroxide Assay Kit (Molecular Probes, Invitrogen, USA). […] The inhibitory effect of the compounds was measured as a decrease (%) in the signal rate as compared to the control group without any inhibitor (only diluted DMSO). […]
Where a name gives a salt, the structure may show the parent alone.
recordedEndpoint: log10(IC50) (log10 of the value in nM)

Cc1cc(-c2ccc(-n3cnn(CC(CN)=C(F)F)c3=O)c(F)c2)cc2c1NC(=O)CC2 [Example 36, Trifluoroacetate] | 2.20
CN(C)c1ccc(-c2ccc(-n3cnn(CC(CN)=C(F)F)c3=O)c(F)c2)cn1 [Example 34, Trifluoroacetate] | 2.89
NCC(Cn1ncn(-c2ncc(Br)cc2F)c1=O)=C(F)F [Example 14, Trifluoroacetate] | 4.60
Cc1cc(-c2ccc3c(c2)CCC(=O)N3C)cnc1-n1cnn(CC(CN)=C(F)F)c1=O [Example 74, Trifluoroacetate] | 3.88
NCC(Cn1ncn(-c2ccc(-c3ccc(N4CCNCC4)cc3)cc2F)c1=O)=C(F)F [Example 32, Ditrifluoroacetate] | 4.23
CCn1cc(-c2ccc(CCn3cnn(CC(CN)=C(F)F)c3=O)s2)cn1 [Example 180, Trifluoroacetate] | 4.79
